Entries and their % max
Biological target: T1, LRP2 CR89 (human, UniProt P98164 1025-1102)
T1 construct: domain: CR89; also called YVWR; L2 CR89; not shown: N-terminal hexahistidine and S-peptide tags of pET30(+)a
T1 sequence (P98164 1025-1102): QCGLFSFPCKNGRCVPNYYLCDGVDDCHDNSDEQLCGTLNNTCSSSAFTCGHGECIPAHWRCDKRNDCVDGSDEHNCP
Experiment: solid-phase assay; OD at the highest ligand concentration as percent of the highest OD of all ligands
Reply with just the number (in %).

Guide cases for % max, answers given:
binder | % max / %
RAP d3 forward mutant E251K, K256A, K270E (ligand, also called triple mutant; not shown: N-terminal hexahistidine and S-peptide tags of pET30(+)a) LDRLRRVSHQGYSTEAEFEEPRVIDLWDLAQSANLTDKELEAFREELKHFKAKIEAHNHYQKQLEIAHEELRHAESVGDGERVSRSREKHALLEGRTKELGYTVKKHLQDLSGRISRAR | 40
MegaRAP1 d3 revertant A256K (ligand, not shown: N-terminal hexahistidine and S-peptide tags of pET30(+)a) LDRLRRVSHQGYTTEAKFEEPRVIDLWDLAQSANLTDKELEAFREELKYFKAKIEKHNHYQKQLEIAHEELRHAESVGDGERVSRSREKHALLEGRTKELGYTVKKHLQDLSGRISRAR | 2
RAP d3 forward mutant H249Y (ligand, The paragraph gives only the position; the change H249Y follows from the mutagenic primers; also called single-site RAP d3 mutant at 249; not shown: N-terminal hexahistidine and S-peptide tags of pET30(+)a) LDRLRRVSHQGYSTEAEFEEPRVIDLWDLAQSANLTDKELEAFREELKYFEAKIEKHNHYQKQLEIAHEKLRHAESVGDGERVSRSREKHALLEGRTKELGYTVKKHLQDLSGRISRAR | 2

Moving on to the next binder.
Q. Name the recorded % max of the item MegaRAP1 d3 revertant Y249H (ligand, MegaRAP1 d3 with position 249 reverted to wild type; not shown: N-terminal hexahistidine and S-peptide tags of pET30(+)a) LDRLRRVSHQGYTTEAKFEEPRVIDLWDLAQSANLTDKELEAFREELKHFKAKIEAHNHYQKQLEIAHEELRHAESVGDGERVSRSREKHALLEGRTKELGYTVKKHLQDLSGRISRAR in your answer.
A. 35
